# testedOn: T1, VEGF (human, UniProt P15692-4 27-191, limits assumed)
# T1 construct: Biotinylated in the KDR-IgG ELISA, amine-coupled to the chip in BIAcore; also called biotinylated VEGF; vascular endothelial growth factor
# protocolText: competitive phage-ELISA, relative to pY0192
Kindly state IC50 (mut)/IC50 (wt) for each of the entries shown.
Report the figure in ratio without appending any unit label.

Ask: Fill in: IC50 (mut)/IC50 (wt) of pY0192 VL T93A (Fab, V domains shown, Ala-scan variant of pY0192; Fab on phage) VH: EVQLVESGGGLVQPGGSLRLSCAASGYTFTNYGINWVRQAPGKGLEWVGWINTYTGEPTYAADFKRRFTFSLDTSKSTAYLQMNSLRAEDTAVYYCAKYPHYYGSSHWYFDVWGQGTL VL: DIQLTQSPSSLSASVGDRVTITCRANEQLSNYLNWYQQKPGKAPKVLIYFTSSLHSGVPSRFSGSGSGTDFTLTISSLQPEDFATYYCQQYSAVPWTFGQGTKVEIKR is ___
Result: 1

Ask: Fill in: IC50 (mut)/IC50 (wt) of pY0192 VH Y60A (Fab, V domains shown, Ala-scan variant of pY0192; Fab on phage) VH: EVQLVESGGGLVQPGGSLRLSCAASGYTFTNYGINWVRQAPGKGLEWVGWINTYTGEPTAAADFKRRFTFSLDTSKSTAYLQMNSLRAEDTAVYYCAKYPHYYGSSHWYFDVWGQGTL VL: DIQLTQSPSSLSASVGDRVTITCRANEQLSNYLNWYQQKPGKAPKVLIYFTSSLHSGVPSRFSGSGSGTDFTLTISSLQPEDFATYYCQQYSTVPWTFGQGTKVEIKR is ___
Result: 2

Ask: Fill in: IC50 (mut)/IC50 (wt) of pY0192 VH N35A (Fab, V domains shown, Ala-scan variant of pY0192; Fab on phage) VH: EVQLVESGGGLVQPGGSLRLSCAASGYTFTNYGIAWVRQAPGKGLEWVGWINTYTGEPTYAADFKRRFTFSLDTSKSTAYLQMNSLRAEDTAVYYCAKYPHYYGSSHWYFDVWGQGTL VL: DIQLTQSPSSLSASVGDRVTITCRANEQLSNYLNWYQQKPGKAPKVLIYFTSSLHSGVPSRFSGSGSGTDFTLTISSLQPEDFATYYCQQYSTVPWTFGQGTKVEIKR is ___
Result: 66
